What AVG CPM, 3H-thymidine incorporation in MKN45 cells, Ab 92.6 ng/mL was measured for each of the following?
Molecular target: human c-Met (human, UniProt P08581 25-1390)
Sequence (P08581 25-1390): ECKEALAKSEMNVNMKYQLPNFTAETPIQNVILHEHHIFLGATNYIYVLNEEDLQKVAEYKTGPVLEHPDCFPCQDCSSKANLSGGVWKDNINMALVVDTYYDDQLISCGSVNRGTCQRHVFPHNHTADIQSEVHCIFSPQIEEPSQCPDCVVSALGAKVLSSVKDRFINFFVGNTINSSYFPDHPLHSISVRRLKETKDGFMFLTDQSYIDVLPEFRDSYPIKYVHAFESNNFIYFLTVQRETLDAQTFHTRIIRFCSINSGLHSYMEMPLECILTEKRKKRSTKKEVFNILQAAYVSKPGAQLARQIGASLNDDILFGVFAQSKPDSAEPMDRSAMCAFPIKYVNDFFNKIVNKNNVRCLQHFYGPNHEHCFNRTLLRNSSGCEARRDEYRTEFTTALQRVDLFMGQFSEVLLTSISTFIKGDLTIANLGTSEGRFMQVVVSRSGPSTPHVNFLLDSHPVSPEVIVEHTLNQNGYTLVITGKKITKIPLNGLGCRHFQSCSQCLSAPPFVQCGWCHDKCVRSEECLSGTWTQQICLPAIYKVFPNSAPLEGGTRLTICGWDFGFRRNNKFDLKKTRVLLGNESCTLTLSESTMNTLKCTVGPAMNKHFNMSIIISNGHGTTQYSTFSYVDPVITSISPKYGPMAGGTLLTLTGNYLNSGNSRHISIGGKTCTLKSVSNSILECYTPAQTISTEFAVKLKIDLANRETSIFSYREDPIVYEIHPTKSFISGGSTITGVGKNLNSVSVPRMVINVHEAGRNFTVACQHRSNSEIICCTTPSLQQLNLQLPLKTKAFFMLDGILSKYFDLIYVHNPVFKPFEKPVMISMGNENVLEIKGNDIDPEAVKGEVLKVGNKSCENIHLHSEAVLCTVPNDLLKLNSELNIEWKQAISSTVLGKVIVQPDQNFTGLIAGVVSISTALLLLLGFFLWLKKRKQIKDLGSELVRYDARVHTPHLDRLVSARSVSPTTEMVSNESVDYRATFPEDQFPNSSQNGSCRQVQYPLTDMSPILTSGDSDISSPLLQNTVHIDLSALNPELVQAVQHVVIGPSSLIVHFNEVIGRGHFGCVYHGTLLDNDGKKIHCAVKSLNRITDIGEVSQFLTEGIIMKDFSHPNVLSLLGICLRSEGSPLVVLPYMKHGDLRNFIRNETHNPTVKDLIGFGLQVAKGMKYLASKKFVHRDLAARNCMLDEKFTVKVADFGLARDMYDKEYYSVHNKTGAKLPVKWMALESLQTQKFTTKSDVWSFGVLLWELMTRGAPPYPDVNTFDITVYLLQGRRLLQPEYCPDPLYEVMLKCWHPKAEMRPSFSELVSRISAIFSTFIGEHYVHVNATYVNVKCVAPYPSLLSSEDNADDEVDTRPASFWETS
Test: cell-based or functional assay
Reply numerically in CPM, unit not repeated.

Name the recorded AVG CPM, 3H-thymidine incorporation in MKN45 cells, Ab 92.6 ng/mL of the item D11-8B8 (antibody, human IgG2, kappa, V domains shown, Human engineered IgG2 kappa c-Met antibody; also called Mab D11-8B8; D11-8B8 IgG2) VH: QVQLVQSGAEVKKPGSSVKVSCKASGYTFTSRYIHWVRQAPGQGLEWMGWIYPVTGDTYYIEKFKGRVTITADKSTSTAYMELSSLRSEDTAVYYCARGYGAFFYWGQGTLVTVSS VL: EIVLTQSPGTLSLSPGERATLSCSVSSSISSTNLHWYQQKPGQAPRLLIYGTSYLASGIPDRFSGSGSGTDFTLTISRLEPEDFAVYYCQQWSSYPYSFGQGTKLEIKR in your answer.
11100

Name the recorded AVG CPM, 3H-thymidine incorporation in MKN45 cells, Ab 92.6 ng/mL of the item C8-6 (antibody, human IgG2, kappa, V domains shown, Named IgG4 kappa; also called C8-6 IgG4) VH: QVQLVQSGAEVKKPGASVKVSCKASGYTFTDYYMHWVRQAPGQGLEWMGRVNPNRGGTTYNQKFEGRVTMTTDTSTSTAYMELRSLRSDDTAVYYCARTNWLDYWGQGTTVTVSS VL: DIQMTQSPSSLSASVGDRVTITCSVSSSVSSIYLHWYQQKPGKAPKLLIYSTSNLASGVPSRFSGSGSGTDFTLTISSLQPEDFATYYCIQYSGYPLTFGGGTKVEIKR in your answer.
23000

Name the recorded AVG CPM, 3H-thymidine incorporation in MKN45 cells, Ab 92.6 ng/mL of the item C8-co-16 (antibody, human IgG2, kappa, V domains shown, Named IgG4 kappa; also called C8-co-16 IgG4) VH: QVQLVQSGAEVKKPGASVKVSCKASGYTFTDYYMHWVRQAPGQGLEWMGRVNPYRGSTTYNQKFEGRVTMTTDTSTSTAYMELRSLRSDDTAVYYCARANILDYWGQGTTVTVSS VL: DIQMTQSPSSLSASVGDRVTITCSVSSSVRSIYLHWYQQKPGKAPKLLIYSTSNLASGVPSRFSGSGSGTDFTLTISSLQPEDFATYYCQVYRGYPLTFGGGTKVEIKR in your answer.
12400

Name the recorded AVG CPM, 3H-thymidine incorporation in MKN45 cells, Ab 92.6 ng/mL of the item D11-S17Y (antibody, human IgG2, kappa, V domains shown, Human engineered IgG2 kappa c-Met antibody; also called D11-S17Y IgG2) VH: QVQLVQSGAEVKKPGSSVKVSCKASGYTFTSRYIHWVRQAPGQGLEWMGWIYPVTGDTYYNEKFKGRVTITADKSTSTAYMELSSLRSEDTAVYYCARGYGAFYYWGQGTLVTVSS VL: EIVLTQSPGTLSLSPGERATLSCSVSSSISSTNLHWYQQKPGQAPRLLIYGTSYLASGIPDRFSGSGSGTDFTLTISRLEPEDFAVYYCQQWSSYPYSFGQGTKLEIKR in your answer.
21900
